Target: human NOX4 (Homo sapiens)
Construct: expressed in transfected cells; membrane fraction used
Sequence (Q9NPH5 1-578): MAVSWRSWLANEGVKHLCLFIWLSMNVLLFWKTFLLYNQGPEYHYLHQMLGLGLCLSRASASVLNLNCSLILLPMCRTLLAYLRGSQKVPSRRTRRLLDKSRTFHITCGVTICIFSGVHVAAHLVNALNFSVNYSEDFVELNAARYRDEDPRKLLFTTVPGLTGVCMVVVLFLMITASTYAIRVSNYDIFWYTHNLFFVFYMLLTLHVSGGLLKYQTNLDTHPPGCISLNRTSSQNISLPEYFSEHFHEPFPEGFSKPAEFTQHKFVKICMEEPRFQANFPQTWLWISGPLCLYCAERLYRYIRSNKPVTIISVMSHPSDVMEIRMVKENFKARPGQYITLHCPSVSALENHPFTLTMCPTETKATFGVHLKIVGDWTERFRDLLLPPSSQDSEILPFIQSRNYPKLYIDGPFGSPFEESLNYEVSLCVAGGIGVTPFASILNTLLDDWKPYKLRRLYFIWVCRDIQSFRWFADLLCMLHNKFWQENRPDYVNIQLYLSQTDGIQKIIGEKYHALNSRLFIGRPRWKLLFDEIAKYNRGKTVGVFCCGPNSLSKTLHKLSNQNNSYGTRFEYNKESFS
Sequence (P13498 1-195 partner): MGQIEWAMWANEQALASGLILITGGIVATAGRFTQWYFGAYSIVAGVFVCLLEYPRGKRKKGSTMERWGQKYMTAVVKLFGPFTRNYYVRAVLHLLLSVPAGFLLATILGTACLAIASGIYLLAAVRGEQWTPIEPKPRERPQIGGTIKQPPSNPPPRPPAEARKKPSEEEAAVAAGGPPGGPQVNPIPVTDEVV
Test: Cell free membrane based in vitro NOX4 assay: H2O2 production by membranes expressing human NOX4, measured with Amplex Red
Format: biochemical
Details: 10.0 μM compound, read-out: Percentage inhibition at 10.0 μM
measurement kind: inhibition at 10 µM (%)

Use the examples below as a reference point.
structure smiles string | inhibition at 10 µM, %
Cn1nc(CO)c2c(=O)c(O)c(-c3ccccc3Cl)[nH]c21 | 86.7
Cc1nn(C2CCC2)c2[nH]c(-c3ccccc3Cl)c(O)c(=O)c12 | 63.8
Cn1nc(CN2CCN(CC(F)(F)F)CC2)c2c(=O)c(O)c(-c3c(F)cccc3F)[nH]c21 | 100
COc1ccc(-c2[nH]c3c(c(C)nn3-c3ccc(F)c(F)c3)c(=O)c2O)c(F)c1 | 87.3
Cc1nn(C)c2[nH]c(-c3ccc(Cl)cc3F)c(O)c(=O)c12 | 78.3
Cn1nc(CN2CCOCC2)c2c(=O)c(O)c(-c3ccccc3Cl)[nH]c21 | 93.5

[P] Cc1nn(C2CC2)c2[nH]c(-c3ccccc3Cl)c(O)c(=O)c12
[Q] Cc1nn(CCN(C)C)c2[nH]c(-c3c(F)cccc3F)c(O)c(=O)c12
# input Given P and Q , report the one with the higher recorded inhibition at 10 µM. Answer = label.
# output Q
